// provenance: patent US4761422A

Would you mind telling me the reported LD50 of each entry?
test: Acute toxicity in rat (DL50); conditions: in vivo, ip

{"compound": "Nc1nc(-c2ccc(Cl)cc2)c(CCO)s1", "LD50": "280 mg/kg"}
{"compound": "CNc1nc(-c2ccc(Cl)cc2)c(CCOC(N)=O)s1", "LD50": "> 1000 mg/kg"}
{"compound": "O=C(O)COc1ccc(C(=O)c2cccs2)c(Cl)c1Cl [Thienyl acid, reference compound]", "LD50": "350 mg/kg"}
{"compound": "CCN(CC)c1nc(-c2ccc(Cl)cc2)c(CCOC(N)=O)s1", "LD50": "> 2000 mg/kg"}
{"compound": "CCN(CC)c1nc(-c2ccc(Cl)cc2)c(CCO)s1", "LD50": "> 1000 mg/kg"}
{"compound": "NC(=O)OCCc1sc(N)nc1-c1ccc(Cl)cc1", "LD50": "> 2000 mg/kg"}

Give LD50 for each listed item.
1. NC(=O)NC(=O)OCCc1sc(N)nc1-c1ccc(Cl)cc1
2. CNc1nc(-c2ccc(Cl)cc2)c(CCO)s1

1. > 1000 mg/kg
2. 750 mg/kg
